src = patent US8513423B2

// Kd lookup, one value per entry
Molecular target: mutant MGL (Homo sapiens, UniProt Q99685, L169S/L176S)
Construct: purified mutant MGL (mut-MGLL 11-313 L179S L186S)
Experiment: MGL ThermoFluor assay - mutant
Type: binding
Details: compound concentration measured by qNMR; read-out: MGL mutant ThermoFluor qKd (using qNMR conc.)
Express your answer in nM, writing the number without its unit.

[[record]]
compound = "O=C(c1ccc(-c2ccc(C(F)(F)F)s2)cc1)N1CCC(C2CN(C(=O)c3ccc[nH]3)C2)CC1 [Cpd 56]"
quantity_kind = "Kd"
number = 3.3


Fill: Kd (mutant MGL (Homo sapiens, UniProt Q99685, L169S/L176S)) for this compound O=C(c1ccc2c(ccn2-c2ccc(C(F)(F)F)cc2)c1)N1CCC(C2CN(C(=O)c3ccc[nH]3)C2)CC1 [Cpd 77]
5

Write down measured Kd (mutant MGL (Homo sapiens, UniProt Q99685, L169S/L176S)) for this compound. Cc1nc2cc(C(=O)N3CC(C4CCN(C(=O)c5nccs5)CC4)C3)ccc2n1-c1ccc(C(F)(F)F)cc1 [Cpd 89]
7.7

Look up and report Kd, with mutant MGL (Homo sapiens, UniProt Q99685, L169S/L176S) as system, for O=C(c1ccc[nH]1)N1CC(C2CCN(C(=O)c3ccc(-c4ccccc4)cc3F)CC2)C1 [Cpd 47]
33.3

Give Kd; test system mutant MGL (Homo sapiens, UniProt Q99685, L169S/L176S); compound O=C(c1ccc(-c2cccc(C(F)(F)F)c2)cc1)N1CCC(C2CN(C(=O)c3cscn3)C2)CC1 [Cpd 49]
1

State recorded Kd with mutant MGL (Homo sapiens, UniProt Q99685, L169S/L176S), entry O=C(c1ccc(-c2ccc(C(F)(F)F)s2)cc1)N1CCC(C2CN(C(=O)c3nccs3)C2)CC1 [Cpd 54] , no comment.
1.8

With mutant MGL (Homo sapiens, UniProt Q99685, L169S/L176S) as the test system, provide measured Kd for this compound: O=C(c1cc2ccc(C(F)(F)F)cc2s1)N1CC(C2(O)CCN(C(=O)c3nccs3)CC2)C1 [Cpd 94]
24.9

---

# key: entry, value: pKd
Target: mutant MGL (Homo sapiens, UniProt Q99685, L169S/L176S)
Construct: purified mutant MGL (mut-MGLL 11-313 L179S L186S)
Assay: MGL ThermoFluor assay - mutant
Type: binding
Settings: 0.07 mg/ml mutant MGL, pH=7.0; read-out: MGL mutant ThermoFluor Kd
Method: The ThermoFluor (TF) assay is a 384-well plate-based binding assay that measures thermal stability of proteins^1,2. The experiments were carried out using instruments available from Johnson & Johnson Pharmaceutical Research & Development, LLC. TF dye used in all experiments was 1,8-ANS (Invitrogen: A-47). […] The Kd values for compounds of Formula (I) were determined from a fit of the equation to the concentration-response plot of the fractional activity as a function of Tm. […]
Just the number, please; pKd means minus log10 of the concentration in mol/L.

[[record]]
compound = "O=C(c1ccccc1)N1CCC(O)(C2CN(C(=O)c3cc4cc(C(F)(F)F)ccc4s3)C2)CC1 [Cpd 6]"
quantity_kind = "pKd"
number = 6.59

[[record]]
compound = "O=C(c1cccc(-c2cccc(F)c2)c1)N1CCC(C2CN(C(=O)c3cscn3)C2)CC1 [Cpd 52]"
quantity_kind = "pKd"
number = 7.52

[[record]]
compound = "O=C(c1ccc(Cc2ccc(C(F)(F)F)cc2)cc1)N1CC(C2CCN(C(=O)c3nccs3)CC2)C1 [Cpd 27]"
quantity_kind = "pKd"
number = 7.88

[[record]]
compound = "O=C(c1cc[nH]c1)N1CCC(C2CN(C(=O)c3ccc(-c4ccccc4)cc3)C2)CC1 [Cpd 4]"
quantity_kind = "pKd"
number = 6.79


Continue with the compound presented below.
Recall and state the measured pKd for O=C(c1ccc(-c2cccc(C(F)(F)F)c2)cc1)N1CC(C2CCN(C(=O)c3nccs3)CC2)C1 [Cpd 16] .
8.70

---

Target: purified wild type MGL (wt-MGLL 6H-11-313) (Homo sapiens, UniProt Q99685)
Sequence (Q99685 1-303): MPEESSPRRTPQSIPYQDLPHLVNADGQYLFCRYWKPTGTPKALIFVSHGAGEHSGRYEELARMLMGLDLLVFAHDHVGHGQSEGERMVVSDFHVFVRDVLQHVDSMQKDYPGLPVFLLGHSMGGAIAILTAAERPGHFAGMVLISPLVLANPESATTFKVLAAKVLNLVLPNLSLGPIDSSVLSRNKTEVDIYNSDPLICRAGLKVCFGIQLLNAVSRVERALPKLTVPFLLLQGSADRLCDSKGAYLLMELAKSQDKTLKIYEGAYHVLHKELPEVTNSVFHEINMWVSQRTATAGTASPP
QUANTITY_KIND: IC50

Field: example entries. Status: answers known.
[[record]]
compound = "O=C(c1ccc2c(ccn2-c2ccc(C(F)(F)F)cc2)c1)N1CC(C2CCN(C(=O)c3ccc[nH]3)CC2)C1 [Cpd 43]"
result = "< 5 nM"

[[record]]
compound = "O=C(c1ccc(-c2ccccc2)cc1)N1CC(C2CCN(C(=O)c3nccs3)CC2)C1 [Cpd 2]"
result = "< 5 nM"


API: the following record is the query input.
Specify measured IC50 for O=C(c1ccc(Cc2cccc(C(F)(F)F)c2)cc1)N1CC(C2CCN(C(=O)c3nccs3)CC2)C1 [Cpd 19] .
< 5 nM

---

Target: MGL (Rattus norvegicus)
Construct: one g rat brain was homogenized; from tissue; host or cells: rat brain homogenate
Sequence (Q8R431 1-303): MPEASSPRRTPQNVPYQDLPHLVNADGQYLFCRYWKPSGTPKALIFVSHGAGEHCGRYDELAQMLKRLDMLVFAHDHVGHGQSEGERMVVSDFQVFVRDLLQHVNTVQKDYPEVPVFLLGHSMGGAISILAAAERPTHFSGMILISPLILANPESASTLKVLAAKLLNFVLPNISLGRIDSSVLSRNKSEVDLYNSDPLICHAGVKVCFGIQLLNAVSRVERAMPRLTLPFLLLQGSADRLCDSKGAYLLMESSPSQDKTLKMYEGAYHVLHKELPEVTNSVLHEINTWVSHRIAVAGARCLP
Assay: 2-AG accumulation assay in rat brain homogenate
Type: biochemical
Details: compound @1 μM, read-out: Rat Brain 2AG % VehCntrl (%) @1 μM
Method: After a 15-min incubation time at 37° C., CaCl2 (final concentration=10 mM) was added and then incubated for 15 min at 37° C. in a total volume of 5 mL. The reactions were stopped with 6 mL organic solvent extraction solution of 2:1 chloroform/methanol. Accumulated 2-AG in the organic phase was measured by a HPLC/MS method, according to the following equation: percent vehicle=(2-AG accumulation in the presence of compound/2-AG accumulation in vehicle)×100.
Label TRUE when 2-AG accumulation, percent of vehicle control at 1 µM is at or above 600%; otherwise label FALSE.

[[record]]
substance_smiles = "O=C(c1ccc2c(ccn2-c2ccc(C(F)(F)F)cc2)c1)N1CCC(C2CN(C(=O)c3cscn3)C2)CC1"
discrete_label = "TRUE"


Threshold query (2-AG accumulation, percent of vehicle control at 1 µM >= 600%) on `O=C(c1ccc2c(ccn2-c2ccc(F)cc2)c1)N1CCC(C2CN(C(=O)c3ccc[nH]3)C2)CC1`
TRUE

Evaluate `O=C(c1ccc(-c2ccc(C(F)(F)F)s2)cc1)N1CC(C2CCN(C(=O)c3ccc[nH]3)CC2)C1` : 2-AG accumulation, percent of vehicle control at 1 µM at minimum 600%?
FALSE

Tell me whether 2-AG accumulation, percent of vehicle control at 1 µM is at least 600% here: `Cc1c(C(=O)N2CC(C3CCN(C(=O)c4cscn4)CC3)C2)sc2cc(C(F)(F)F)ccc12`
FALSE

Identify whether the reported 2-AG accumulation, percent of vehicle control at 1 µM of the following molecule is 600% or greater: `O=C(c1ccc(-c2ccc(C(F)(F)F)s2)cc1)N1CCC(C2CN(C(=O)c3ccc[nH]3)C2)CC1`
FALSE

Answer whether 2-AG accumulation, percent of vehicle control at 1 µM of `O=C(c1ccc(-c2cccc(C(F)(F)F)c2)cc1)N1CC(C2CCN(C(=O)c3ccc[nH]3)CC2)C1` is greater than or equal to 600%.
FALSE

Threshold query (2-AG accumulation, percent of vehicle control at 1 µM >= 600%) on `O=C(c1nccs1)N1CCC(C2CN(C(=O)c3sc4cc(C(F)(F)F)ccc4c3Cl)C2)CC1`
TRUE

Decide: is the reported value of 2-AG accumulation, percent of vehicle control at 1 µM for `O=C(c1cscn1)N1CCC(C2CN(C(=O)c3sc4cc(C(F)(F)F)ccc4c3Cl)C2)CC1` equal to or greater than 600%?
TRUE

---

Molecular target: mutant MGL (Homo sapiens, UniProt Q99685, L169S/L176S)
Construct: purified mutant MGL (mut-MGLL 11-313 L179S L186S)
Experiment: MGL ThermoFluor assay - mutant
Assay type: binding
Settings: compound concentration measured by qNMR; read-out: MGL mutant ThermoFluor qKd (using qNMR conc.)
# Kd binned as low end: < 4 nM; middle: ≥ 4 nM and < 20 nM; high end: ≥ 20 nM

Check out these entries, answers already filled in.
[[record]]
substance_smiles = "O=C(c1nccs1)N1CC(C2CCN(C(=O)c3sc4cc(C(F)(F)F)ccc4c3Cl)CC2)C1"
discrete_label = "low end"

[[record]]
substance_smiles = "O=C(c1ccc[nH]1)N1CC(C2CCN(C(=O)c3sc4cc(C(F)(F)F)ccc4c3Cl)CC2)C1"
discrete_label = "low end"

[[record]]
substance_smiles = "O=C(c1ccc(Cc2cccc(C(F)(F)F)c2)cc1)N1CCC(C2CN(C(=O)c3cscn3)C2)CC1"
discrete_label = "middle"

[[record]]
substance_smiles = "O=C(c1ccc[nH]1)N1CCC(C2CN(C(=O)c3sc4cc(C(F)(F)F)ccc4c3Cl)C2)CC1"
discrete_label = "low end"

[[record]]
substance_smiles = "O=C(c1cccc(-c2cccc(F)c2)c1)N1CCC(C2CN(C(=O)c3cscn3)C2)CC1"
discrete_label = "high end"

[[record]]
substance_smiles = "O=C(c1ccc2c(ccn2-c2ccc(F)c(F)c2)c1)N1CCC(C2CN(C(=O)c3nccs3)C2)CC1"
discrete_label = "low end"

[[record]]
substance_smiles = "O=C(c1ccc(Cc2ccc(C(F)(F)F)cc2)cc1)N1CCC(C2CN(C(=O)c3ccc[nH]3)C2)CC1"
discrete_label = "high end"

[[record]]
substance_smiles = "O=C(c1ccc2c(c1)[nH]c(=O)n2CCC(F)(F)F)N1CC(C2CCN(C(=O)c3nccs3)CC2)C1"
discrete_label = "high end"

[[record]]
substance_smiles = "Cc1nc2cc(C(=O)N3CC(C4CCN(C(=O)c5nccs5)CC4)C3)ccc2n1-c1ccccc1"
discrete_label = "middle"

[[record]]
substance_smiles = "O=C(c1cccc(-c2cccc(F)c2)c1)N1CCC(C2CN(C(=O)c3nccs3)C2)CC1"
discrete_label = "middle"


Hi, small favor: classify `O=C(c1ccc2c(c1)ncn2-c1ccc(F)c(F)c1)N1CC(C2CCN(C(=O)c3nccs3)CC2)C1` by its Kd when you get a moment.
high end

Class label required: `O=C(c1ccc2c(c1)ncn2-c1ccc(C(F)(F)F)cc1)N1CC(C2CCN(C(=O)c3nccs3)CC2)C1`
middle
